Experiment Description: qHTS for Inhibitors of the Functional Ribonucleoprotein Complex (vRNP) of Lassa (LASV) Arenavirus: LASV Primary Screen - GLuc reporter signal (AID 1347082); also: % is scaled to controls: 0 for no effect and ±100 for the full control effect; nearly all actives have a fitted effect of over 60% in size
Condition Details: LASV minigenome vRNP, Gaussia luciferase reporter; series mostly up to 57.5 µM
Records with an inconclusive call do not appear. Activity calls are given as the source filed them. Calls follow the shape of the full dose curve; tested in HEK293 reporter line.
Endpoint: activity change, negative = inhibition

Please review the following examples before continuing.
>  <Compound>
CCn1cc(C(=O)O)c(=O)c2cnc(N3CCCC3)nc21

>  <activity change, negative = inhibition>
2.17% [at 11.5 µM] (inactive)

$$$$
>  <Compound>
CC(C)(CO)[C@@H](O)C(=O)NCCCO

>  <activity change, negative = inhibition>
inactive

$$$$
>  <Compound>
CC(=O)Oc1cccc2c1C(=O)c1c(OC(C)=O)cc(C(=O)O)cc1C2=O

>  <activity change, negative = inhibition>
inactive

$$$$
>  <Compound>
CCN(CC)CCNC(=O)c1ccc(N)cc1

>  <activity change, negative = inhibition>
inactive

$$$$

Each compound below has a reported value. Please supply its activity change, negative = inhibition.
1. CC[N+](CC)(CC)CCOc1cccc(OCC[N+](CC)(CC)CC)c1OCC[N+](CC)(CC)CC
2. Cc1cc(C(C#N)c2ccc(Cl)cc2)c(Cl)cc1NC(=O)c1cc(I)cc(I)c1O (stereo unspecified)

["inactive", "inactive"]

---

Experiment Description: qHTS of pediatric cancer cell lines to identify multiple opportunities for drug repurposing: Confirmatory screen for OHS-50 cells (AID 1347128);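 also: compound exposure lasted 48 h at 37 degrees C; nearly all actives have a fitted effect of over 55% in size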
Condition Details: OHS-50 osteosarcoma cells viability; series mostly up to 45.9 µM
Results filed as inconclusive are left out. Calls of active or inactive are those of the source. Calls follow the shape of the dose curve; as a rule, active = well fitted cell-killing curve with a large enough effect; inconclusive = small, poorly fitted or top-dose-only effect, or effect the other way; inactive = no such curve, though single readings can be large or run the other way.
Reply using exactly one outcome from active, inactive

>  <Compound>
O=C(N/N=C/c1ccc([N+](=O)[O-])o1)c1cc([N+](=O)[O-])cc([N+](=O)[O-])c1O

>  <Assigned Class>
inactive

$$$$
>  <Compound>
COc1cccc2c1C(=O)c1c(O)c3c(c(O)c1C2=O)C[C@@](O)(C(=O)CO)CC3OC1CC(N2CCOC(OC)C2)C(O)C(C)O1 (stereo partly specified)

>  <Assigned Class>
active

$$$$
>  <Compound>
O=P1(N(CCCl)CCCl)NCCCO1 (stereo unspecified)

>  <Assigned Class>
inactive

$$$$
>  <Compound>
C[C@]12CCC(=O)C=C1CC[C@@H]1[C@@H]2CC[C@@]2(C)[C@H]1CC[C@]2(C)O

>  <Assigned Class>
inactive

$$$$
>  <Compound>
CCCN(CCC)C(=O)Cc1c(-c2ccc(Cl)cc2)nc2ccc(Cl)cn12

>  <Assigned Class>
inactive

$$$$

// switching to the query compound
Recorded call for `O=C(O)CCCc1ccc(N(CCCl)CCCl)cc1` ? inactive

---

Experiment Description: Quantitative High-Throughput drug screen in 47 multiple myeloma cell lines against the NCATS MIPE library collection: KMS11_JCRBsus cell viability assay (AID 1919873); also: nearly all actives have a fitted effect of over 50% in size; also: potency is read from the fitted curve at half-maximal effect
Condition Details: KMS11 myeloma viability, CellTiter-Glo ATP luminescence, 48 h; series mostly up to 45.8 µM
Records with an inconclusive call do not appear. Active and inactive are the calls of the source. Calls follow the shape of the dose curve; as a rule, active = well fitted cell-killing curve with a large enough effect; inconclusive = small, poorly fitted or top-dose-only effect, or effect the other way; inactive = no such curve, though single readings can be large or run the other way.
Endpoint: Potency

Please review the following examples before continuing.
>  <Mol Smiles>
CC(C)c1cccc(C(C)C)c1O

>  <Potency>
inactive

$$$$
>  <Mol Smiles>
CC(C)C[C@H](CN)CC(=O)O

>  <Potency>
inactive

$$$$
>  <Mol Smiles>
C[C@]12CC[C@H]3[C@@H](CC[C@@]45O[C@H]4C(O)=C(C#N)C[C@]35C)[C@H]1CC[C@H]2O

>  <Potency>
inactive

$$$$
>  <Mol Smiles>
COc1cc(OC)c(OC)cc1C=O

>  <Potency>
inactive

$$$$
>  <Mol Smiles>
C[C@]12CC[C@@H]3c4ccc(OC(=O)N(CCCl)CCCl)cc4CC[C@H]3[C@@H]1CC[C@@H]2OP(=O)(O)O

>  <Potency>
inactive

$$$$
>  <Mol Smiles>
C[C@](O)(CS(=O)(=O)c1ccc(F)cc1)C(=O)Nc1ccc(C#N)c(C(F)(F)F)c1

>  <Potency>
inactive

$$$$

Turning to the following compound.
Specify Potency for `C[C@]12CCC(=O)C=C1CC[C@@H]1[C@H]3CC[C@](C)(O)[C@@]3(C)CC[C@@H]12` and stop. 42.9 µM (active)
